Target: DMPK (Homo sapiens (Human), UniProt Q09013)
Sequence (Q09013 whole entry): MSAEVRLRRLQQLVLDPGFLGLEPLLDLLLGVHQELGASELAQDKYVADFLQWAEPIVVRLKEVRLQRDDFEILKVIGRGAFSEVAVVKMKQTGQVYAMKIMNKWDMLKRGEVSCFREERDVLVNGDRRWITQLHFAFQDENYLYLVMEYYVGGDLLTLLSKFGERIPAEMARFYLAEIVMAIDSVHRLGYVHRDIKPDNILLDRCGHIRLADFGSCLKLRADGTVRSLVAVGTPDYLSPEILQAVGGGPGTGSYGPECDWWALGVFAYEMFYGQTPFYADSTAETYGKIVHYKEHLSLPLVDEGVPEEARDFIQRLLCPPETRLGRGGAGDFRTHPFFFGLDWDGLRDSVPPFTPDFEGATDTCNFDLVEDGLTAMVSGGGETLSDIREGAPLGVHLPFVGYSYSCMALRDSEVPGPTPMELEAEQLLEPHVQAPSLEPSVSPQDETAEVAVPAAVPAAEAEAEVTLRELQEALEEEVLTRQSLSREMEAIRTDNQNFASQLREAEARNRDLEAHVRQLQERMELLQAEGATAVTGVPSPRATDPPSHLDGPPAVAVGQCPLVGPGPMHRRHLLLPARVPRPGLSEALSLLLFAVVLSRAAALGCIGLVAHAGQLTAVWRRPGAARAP
Test: KinaseProfiler off-target kinase profiling
Format: biochemical
Details: 10 μM, ATP near Km
measurement name: Avg. POC (POC)

>>> numeric_result("Cc1c(-c2cnn(C)c2)nn(-c2ccccc2)c1NC(=O)N[C@H]1CCCc2ccccc21 [Example 2]")
105
>>> numeric_result("Cc1c(-c2ccc(=O)n(C)c2)nn(-c2ccccc2)c1NC(=O)NC1CN(CC(F)(F)F)Cc2ccccc21 (stereo not shown) [Example 26]")
106
>>> numeric_result("Cc1c(-c2cnn(C)c2)nn(-c2ccccc2)c1NC(=O)NC1CCOc2cc(F)ccc21 (stereo not shown) [Example 12]")
104
>>> numeric_result("COCc1ccc2c(c1)C(NC(=O)Nc1c(C)c(-c3cnn(C)c3)nn1-c1ccccc1)COC2 (stereo not shown) [Example 32]")
98.5

* * *

Target: CAMK2d (Homo sapiens (Human))
Sequence (Q13557 whole entry): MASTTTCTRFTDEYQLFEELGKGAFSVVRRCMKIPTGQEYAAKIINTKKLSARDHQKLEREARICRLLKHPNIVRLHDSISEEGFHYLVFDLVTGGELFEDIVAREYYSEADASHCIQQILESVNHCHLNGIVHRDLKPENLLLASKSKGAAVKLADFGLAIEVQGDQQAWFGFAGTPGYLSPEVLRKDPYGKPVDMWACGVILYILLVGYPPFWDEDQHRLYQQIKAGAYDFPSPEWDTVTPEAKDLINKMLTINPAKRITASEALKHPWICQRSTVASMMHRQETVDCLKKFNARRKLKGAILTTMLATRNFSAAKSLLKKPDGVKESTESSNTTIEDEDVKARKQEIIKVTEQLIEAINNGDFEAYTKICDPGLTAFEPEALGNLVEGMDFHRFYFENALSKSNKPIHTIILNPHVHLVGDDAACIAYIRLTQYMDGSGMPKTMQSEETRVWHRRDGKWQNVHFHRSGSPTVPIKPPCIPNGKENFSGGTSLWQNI
Experiment: KinaseProfiler off-target kinase profiling
Type: biochemical
Settings: 10 μM, ATP near Km
measurement name: Avg. POC (POC)

>>> numeric_result("Cc1c(-c2cnn(C)c2)nn(-c2ccccc2)c1NC(=O)NC1CCOc2cc(F)ccc21 (stereo not shown)")
110.5
>>> numeric_result("COCc1ccc2c(c1)C(NC(=O)Nc1c(C)c(-c3cnn(C)c3)nn1-c1ccccc1)COC2 (stereo not shown)")
108.5
>>> numeric_result("Cc1c(-c2cnn(C)c2)nn(-c2ccccc2)c1NC(=O)N[C@H]1CCCc2ccccc21")
119
>>> numeric_result("Cc1c(-c2ccc(=O)n(C)c2)nn(-c2ccccc2)c1NC(=O)NC1CN(CC(F)(F)F)Cc2ccccc21 (stereo not shown)")
99.5

* * *

Target: MKNK2 (Homo sapiens (Human))
Sequence (Q9HBH9 whole entry): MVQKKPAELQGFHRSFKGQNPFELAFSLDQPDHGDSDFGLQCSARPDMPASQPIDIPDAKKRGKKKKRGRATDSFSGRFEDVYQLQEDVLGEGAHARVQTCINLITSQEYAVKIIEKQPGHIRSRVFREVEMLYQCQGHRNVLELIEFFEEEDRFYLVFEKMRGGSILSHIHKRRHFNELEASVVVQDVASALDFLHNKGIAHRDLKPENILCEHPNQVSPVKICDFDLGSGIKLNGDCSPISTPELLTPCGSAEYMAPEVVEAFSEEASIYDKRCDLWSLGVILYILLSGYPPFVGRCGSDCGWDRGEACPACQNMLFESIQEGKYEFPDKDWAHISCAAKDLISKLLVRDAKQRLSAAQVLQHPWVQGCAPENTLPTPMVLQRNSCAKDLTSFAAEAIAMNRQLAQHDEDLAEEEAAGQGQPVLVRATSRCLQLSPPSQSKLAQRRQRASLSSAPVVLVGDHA
Assay: KinaseProfiler off-target kinase profiling
Assay type: biochemical
Settings: 10 μM, ATP near Km
measurement name: Avg. POC (POC)

>>> numeric_result("Cc1c(-c2cnn(C)c2)nn(-c2ccccc2)c1NC(=O)NC1CCOc2cc(F)ccc21 (stereo not shown)")
103.5
>>> numeric_result("Cc1c(-c2ccc(=O)n(C)c2)nn(-c2ccccc2)c1NC(=O)NC1CN(CC(F)(F)F)Cc2ccccc21 (stereo not shown)")
99.5
>>> numeric_result("COCc1ccc2c(c1)C(NC(=O)Nc1c(C)c(-c3cnn(C)c3)nn1-c1ccccc1)COC2 (stereo not shown)")
99.5
>>> numeric_result("Cc1c(-c2cnn(C)c2)nn(-c2ccccc2)c1NC(=O)N[C@H]1CCCc2ccccc21")
106.5

* * *

Target: UniProt P29320
Assay: KinaseProfiler off-target kinase profiling
Format: biochemical
Conditions: 10 μM, ATP near Km
measurement name: Avg. POC (POC)

>>> numeric_result("Cc1c(-c2ccc(=O)n(C)c2)nn(-c2ccccc2)c1NC(=O)NC1CN(CC(F)(F)F)Cc2ccccc21 (stereo not shown)")
128
>>> numeric_result("Cc1c(-c2cnn(C)c2)nn(-c2ccccc2)c1NC(=O)N[C@H]1CCCc2ccccc21")
123.5
>>> numeric_result("Cc1c(-c2cnn(C)c2)nn(-c2ccccc2)c1NC(=O)NC1CCOc2cc(F)ccc21 (stereo not shown)")
114.5
>>> numeric_result("COCc1ccc2c(c1)C(NC(=O)Nc1c(C)c(-c3cnn(C)c3)nn1-c1ccccc1)COC2 (stereo not shown)")
122

* * *

Target: IGF-1R Activated (Homo sapiens (Human), UniProt P08069)
Sequence (P08069 959-1367 limits assumed): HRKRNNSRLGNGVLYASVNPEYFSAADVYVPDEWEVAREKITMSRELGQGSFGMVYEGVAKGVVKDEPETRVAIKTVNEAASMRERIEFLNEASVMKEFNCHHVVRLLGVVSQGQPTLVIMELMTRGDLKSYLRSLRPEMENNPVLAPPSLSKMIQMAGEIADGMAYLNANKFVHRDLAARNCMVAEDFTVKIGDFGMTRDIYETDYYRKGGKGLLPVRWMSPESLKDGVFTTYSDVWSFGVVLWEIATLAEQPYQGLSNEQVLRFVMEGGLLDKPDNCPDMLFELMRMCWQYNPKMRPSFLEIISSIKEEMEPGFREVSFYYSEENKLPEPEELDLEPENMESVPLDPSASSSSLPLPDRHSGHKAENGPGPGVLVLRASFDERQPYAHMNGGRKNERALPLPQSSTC
Test: KinaseProfiler off-target kinase profiling
Type: biochemical
Settings: 10 μM, ATP near Km
measurement name: Avg. POC (POC)

>>> numeric_result("Cc1c(-c2ccc(=O)n(C)c2)nn(-c2ccccc2)c1NC(=O)NC1CN(CC(F)(F)F)Cc2ccccc21 (stereo not shown)")
98
>>> numeric_result("Cc1c(-c2cnn(C)c2)nn(-c2ccccc2)c1NC(=O)NC1CCOc2cc(F)ccc21 (stereo not shown)")
102.5
>>> numeric_result("COCc1ccc2c(c1)C(NC(=O)Nc1c(C)c(-c3cnn(C)c3)nn1-c1ccccc1)COC2 (stereo not shown)")
112.5
>>> numeric_result("Cc1c(-c2cnn(C)c2)nn(-c2ccccc2)c1NC(=O)N[C@H]1CCCc2ccccc21")
95

* * *

Biological target: CK1gamma1 (Homo sapiens (Human), UniProt Q9HCP0)
Experiment: KinaseProfiler off-target kinase profiling
Assay type: biochemical
Settings: 10 μM, ATP near Km
Experimental: Representative compounds (Examples 12, 32, 26 and 2) of the invention were tested for off-target kinase activity at a concentration of 10 μM by Millipore, Inc. in their KinaseProfiler™ service against all the kinases available in their full kinase panel. Compounds were run in duplicate at a concentration of ATP near the Km for each individual kinase according to Millipore's specifications. […]
measurement name: Avg. POC (POC)

>>> numeric_result("Cc1c(-c2ccc(=O)n(C)c2)nn(-c2ccccc2)c1NC(=O)NC1CN(CC(F)(F)F)Cc2ccccc21 (stereo not shown)")
106.5
>>> numeric_result("COCc1ccc2c(c1)C(NC(=O)Nc1c(C)c(-c3cnn(C)c3)nn1-c1ccccc1)COC2 (stereo not shown)")
111.5
>>> numeric_result("Cc1c(-c2cnn(C)c2)nn(-c2ccccc2)c1NC(=O)NC1CCOc2cc(F)ccc21 (stereo not shown)")
98.5
>>> numeric_result("Cc1c(-c2cnn(C)c2)nn(-c2ccccc2)c1NC(=O)N[C@H]1CCCc2ccccc21")
116.5

* * *

Target: UniProt P06241
Sequence (P06241 whole entry): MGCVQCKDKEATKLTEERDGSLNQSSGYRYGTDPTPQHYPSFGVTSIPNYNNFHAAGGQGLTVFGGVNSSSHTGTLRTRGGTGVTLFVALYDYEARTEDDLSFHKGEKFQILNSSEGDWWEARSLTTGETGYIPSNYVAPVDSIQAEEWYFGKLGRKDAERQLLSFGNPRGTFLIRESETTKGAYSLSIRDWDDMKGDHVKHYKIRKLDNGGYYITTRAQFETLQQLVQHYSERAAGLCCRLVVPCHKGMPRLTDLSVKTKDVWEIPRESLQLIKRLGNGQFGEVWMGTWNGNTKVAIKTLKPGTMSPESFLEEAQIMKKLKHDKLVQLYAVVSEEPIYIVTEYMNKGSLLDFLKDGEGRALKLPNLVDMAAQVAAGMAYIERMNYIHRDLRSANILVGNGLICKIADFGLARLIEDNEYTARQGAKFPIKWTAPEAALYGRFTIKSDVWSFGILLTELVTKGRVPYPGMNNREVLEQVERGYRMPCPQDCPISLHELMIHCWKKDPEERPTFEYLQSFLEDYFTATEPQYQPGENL
Assay: KinaseProfiler off-target kinase profiling
Format: biochemical
Settings: 10 μM, ATP near Km
measurement name: Avg. POC (POC)

>>> numeric_result("Cc1c(-c2cnn(C)c2)nn(-c2ccccc2)c1NC(=O)NC1CCOc2cc(F)ccc21 (stereo not shown)")
92.5
>>> numeric_result("COCc1ccc2c(c1)C(NC(=O)Nc1c(C)c(-c3cnn(C)c3)nn1-c1ccccc1)COC2 (stereo not shown)")
111
>>> numeric_result("Cc1c(-c2cnn(C)c2)nn(-c2ccccc2)c1NC(=O)N[C@H]1CCCc2ccccc21")
123.5
>>> numeric_result("Cc1c(-c2ccc(=O)n(C)c2)nn(-c2ccccc2)c1NC(=O)NC1CN(CC(F)(F)F)Cc2ccccc21 (stereo not shown)")
115.5

* * *

Target: CDK9/cyclinT1 (Homo sapiens (Human))
Assay: KinaseProfiler off-target kinase profiling
Type: biochemical
Details: 10 μM, ATP near Km
measurement name: Avg. POC (POC)

>>> numeric_result("Cc1c(-c2ccc(=O)n(C)c2)nn(-c2ccccc2)c1NC(=O)NC1CN(CC(F)(F)F)Cc2ccccc21 (stereo not shown)")
112.5
>>> numeric_result("Cc1c(-c2cnn(C)c2)nn(-c2ccccc2)c1NC(=O)NC1CCOc2cc(F)ccc21 (stereo not shown)")
106
>>> numeric_result("COCc1ccc2c(c1)C(NC(=O)Nc1c(C)c(-c3cnn(C)c3)nn1-c1ccccc1)COC2 (stereo not shown)")
106.5
>>> numeric_result("Cc1c(-c2cnn(C)c2)nn(-c2ccccc2)c1NC(=O)N[C@H]1CCCc2ccccc21")
127

* * *

Biological target: FAK2 (Homo sapiens (Human), UniProt Q14289)
Assay: KinaseProfiler off-target kinase profiling
Format: biochemical
Details: 10 μM, ATP near Km
measurement name: Avg. POC (POC)

>>> numeric_result("Cc1c(-c2cnn(C)c2)nn(-c2ccccc2)c1NC(=O)N[C@H]1CCCc2ccccc21")
120
>>> numeric_result("Cc1c(-c2cnn(C)c2)nn(-c2ccccc2)c1NC(=O)NC1CCOc2cc(F)ccc21 (stereo not shown)")
111
>>> numeric_result("Cc1c(-c2ccc(=O)n(C)c2)nn(-c2ccccc2)c1NC(=O)NC1CN(CC(F)(F)F)Cc2ccccc21 (stereo not shown)")
104.5
>>> numeric_result("COCc1ccc2c(c1)C(NC(=O)Nc1c(C)c(-c3cnn(C)c3)nn1-c1ccccc1)COC2 (stereo not shown)")
101.5

* * *

Target: DAPK1 (Homo sapiens (Human), UniProt P53355)
Sequence (P53355 whole entry): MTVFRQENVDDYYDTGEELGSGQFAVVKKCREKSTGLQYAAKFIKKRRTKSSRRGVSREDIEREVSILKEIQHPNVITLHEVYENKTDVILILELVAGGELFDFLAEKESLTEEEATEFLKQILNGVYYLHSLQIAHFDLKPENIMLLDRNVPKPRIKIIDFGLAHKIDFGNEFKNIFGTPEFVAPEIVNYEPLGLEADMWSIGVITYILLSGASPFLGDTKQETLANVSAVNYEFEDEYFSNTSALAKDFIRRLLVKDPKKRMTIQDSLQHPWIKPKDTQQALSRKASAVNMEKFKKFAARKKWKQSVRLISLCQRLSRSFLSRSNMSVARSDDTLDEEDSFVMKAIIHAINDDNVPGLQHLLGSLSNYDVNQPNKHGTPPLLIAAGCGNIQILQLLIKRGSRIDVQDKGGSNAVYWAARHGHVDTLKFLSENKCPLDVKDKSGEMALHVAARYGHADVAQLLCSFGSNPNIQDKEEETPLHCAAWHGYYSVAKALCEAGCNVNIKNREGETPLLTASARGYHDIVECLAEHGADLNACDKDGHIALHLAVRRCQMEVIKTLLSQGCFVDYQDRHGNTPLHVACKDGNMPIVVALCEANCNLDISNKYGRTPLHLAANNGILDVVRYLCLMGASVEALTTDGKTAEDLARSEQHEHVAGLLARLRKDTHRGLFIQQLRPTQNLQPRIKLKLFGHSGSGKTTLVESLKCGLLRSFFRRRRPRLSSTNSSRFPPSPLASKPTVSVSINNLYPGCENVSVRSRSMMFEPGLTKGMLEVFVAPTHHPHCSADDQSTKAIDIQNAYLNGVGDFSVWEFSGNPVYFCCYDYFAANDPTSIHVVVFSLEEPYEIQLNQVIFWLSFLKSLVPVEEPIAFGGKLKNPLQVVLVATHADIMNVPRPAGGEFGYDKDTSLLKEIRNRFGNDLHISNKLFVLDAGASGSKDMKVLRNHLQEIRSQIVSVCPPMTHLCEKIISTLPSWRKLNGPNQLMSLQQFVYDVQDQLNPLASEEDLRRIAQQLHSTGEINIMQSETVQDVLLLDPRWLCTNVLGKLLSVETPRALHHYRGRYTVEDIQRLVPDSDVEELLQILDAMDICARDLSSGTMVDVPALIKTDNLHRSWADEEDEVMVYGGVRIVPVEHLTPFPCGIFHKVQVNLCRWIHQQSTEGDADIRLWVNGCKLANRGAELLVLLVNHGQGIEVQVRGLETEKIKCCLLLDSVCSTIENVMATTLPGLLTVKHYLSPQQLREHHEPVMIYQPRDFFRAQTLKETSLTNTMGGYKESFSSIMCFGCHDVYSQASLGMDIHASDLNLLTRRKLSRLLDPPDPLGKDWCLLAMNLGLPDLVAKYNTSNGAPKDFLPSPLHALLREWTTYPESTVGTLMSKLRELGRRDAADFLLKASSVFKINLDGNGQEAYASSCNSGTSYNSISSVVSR
Test: KinaseProfiler off-target kinase profiling
Format: biochemical
Conditions: 10 μM, ATP near Km
measurement name: Avg. POC (POC)

>>> numeric_result("COCc1ccc2c(c1)C(NC(=O)Nc1c(C)c(-c3cnn(C)c3)nn1-c1ccccc1)COC2 (stereo not shown) [Example 32]")
131
>>> numeric_result("Cc1c(-c2cnn(C)c2)nn(-c2ccccc2)c1NC(=O)N[C@H]1CCCc2ccccc21 [Example 2]")
108.5
>>> numeric_result("Cc1c(-c2cnn(C)c2)nn(-c2ccccc2)c1NC(=O)NC1CCOc2cc(F)ccc21 (stereo not shown) [Example 12]")
136
>>> numeric_result("Cc1c(-c2ccc(=O)n(C)c2)nn(-c2ccccc2)c1NC(=O)NC1CN(CC(F)(F)F)Cc2ccccc21 (stereo not shown) [Example 26]")
135

* * *

Biological target: BTK (Homo sapiens (Human))
Sequence (Q06187 whole entry): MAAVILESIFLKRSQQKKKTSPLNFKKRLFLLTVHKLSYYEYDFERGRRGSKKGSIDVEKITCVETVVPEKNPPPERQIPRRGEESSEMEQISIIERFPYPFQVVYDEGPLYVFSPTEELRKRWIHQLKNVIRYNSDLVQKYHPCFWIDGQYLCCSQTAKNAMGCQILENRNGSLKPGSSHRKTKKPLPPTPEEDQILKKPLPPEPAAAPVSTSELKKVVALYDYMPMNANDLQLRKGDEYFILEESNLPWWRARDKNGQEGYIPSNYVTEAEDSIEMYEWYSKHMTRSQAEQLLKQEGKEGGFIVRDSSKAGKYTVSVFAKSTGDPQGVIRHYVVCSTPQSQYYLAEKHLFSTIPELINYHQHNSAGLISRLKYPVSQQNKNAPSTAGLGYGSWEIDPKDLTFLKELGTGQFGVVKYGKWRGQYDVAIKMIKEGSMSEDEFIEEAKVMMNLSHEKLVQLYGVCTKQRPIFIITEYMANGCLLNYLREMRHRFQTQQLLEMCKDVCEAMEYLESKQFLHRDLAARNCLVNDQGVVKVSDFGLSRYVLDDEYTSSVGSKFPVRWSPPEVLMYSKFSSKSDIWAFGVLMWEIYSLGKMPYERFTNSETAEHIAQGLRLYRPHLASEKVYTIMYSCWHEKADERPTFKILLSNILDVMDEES
Assay: KinaseProfiler off-target kinase profiling
Assay type: biochemical
Details: 10 μM, ATP near Km
measurement name: Avg. POC (POC)

>>> numeric_result("Cc1c(-c2cnn(C)c2)nn(-c2ccccc2)c1NC(=O)N[C@H]1CCCc2ccccc21")
111.5
>>> numeric_result("COCc1ccc2c(c1)C(NC(=O)Nc1c(C)c(-c3cnn(C)c3)nn1-c1ccccc1)COC2 (stereo not shown)")
119
>>> numeric_result("Cc1c(-c2ccc(=O)n(C)c2)nn(-c2ccccc2)c1NC(=O)NC1CN(CC(F)(F)F)Cc2ccccc21 (stereo not shown)")
139
>>> numeric_result("Cc1c(-c2cnn(C)c2)nn(-c2ccccc2)c1NC(=O)NC1CCOc2cc(F)ccc21 (stereo not shown)")
127
